Entry source: PubChem BioAssay (NCI)

# Test system: TK-10 renal
# ASSAY DETAILS: NCI tumour cell line growth inhibition, 48 h
Answer each item with its documented log10 of TGI.
Heads up: the numbers are on a log10 scale; they represent TGI in µM.

Below, 3 compounds whose answers are already recorded.
{"columns": ["COMPOUND STRING", "MEASURED QUANTITY", "EXPERIMENTAL VALUE"],
 "data": [
  ["COC12C=C/C(=C(/C(=O)OCc3ccncc3)C(=O)CCCCCCCCC3(OC)C=C/C(=C(/C(=O)OCc4ccncc4)C(=O)CCCCCCCC1)O3)O2", "log10 of TGI", 0.56],
  ["Cc1nc2cnc(N)c(C#Cc3cncc(C(=O)Nc4ccc(CN5CCN(C)CC5)c(C(F)(F)F)c4)c3)c2nc1C", "log10 of TGI", 0.51],
  ["CCCCCCNC(=O)c1nc(-c2ccccc2)oc1Cc1ccc(OP(=O)(O)O)cc1", "log10 of TGI", 1.52]
]}

# batch size: 3; output log10 of TGI per entry
1. COc1cc(-c2nn(-c3cccc(NC(=O)Nc4ccc(Cl)c(Cl)c4)c3)cc2-c2ccncc2)ccc1Cl
2. O=C(CC(O)(C(F)(F)F)C(F)(F)F)c1cc(CC(=O)C(O)(C(F)(F)F)C(F)(F)F)cc(CC(=O)C(O)(C(F)(F)F)C(F)(F)F)c1
3. CCOc1ccc2nc(S/C(=C/C=C(C#N)C#N)c3ccc(C)cc3)sc2c1

Response line:
1: 1.61; 2: 0.92; 3: 1.98
